These data points were gathered from PubChem BioAssay AID861.

Target: Toll-like receptor 4 (Homo sapiens) + Myeloid differentiation primary response protein MyD88 (Homo sapiens) (UniProt O00206+Q99836)
Sequence (O00206 whole entry, looked up): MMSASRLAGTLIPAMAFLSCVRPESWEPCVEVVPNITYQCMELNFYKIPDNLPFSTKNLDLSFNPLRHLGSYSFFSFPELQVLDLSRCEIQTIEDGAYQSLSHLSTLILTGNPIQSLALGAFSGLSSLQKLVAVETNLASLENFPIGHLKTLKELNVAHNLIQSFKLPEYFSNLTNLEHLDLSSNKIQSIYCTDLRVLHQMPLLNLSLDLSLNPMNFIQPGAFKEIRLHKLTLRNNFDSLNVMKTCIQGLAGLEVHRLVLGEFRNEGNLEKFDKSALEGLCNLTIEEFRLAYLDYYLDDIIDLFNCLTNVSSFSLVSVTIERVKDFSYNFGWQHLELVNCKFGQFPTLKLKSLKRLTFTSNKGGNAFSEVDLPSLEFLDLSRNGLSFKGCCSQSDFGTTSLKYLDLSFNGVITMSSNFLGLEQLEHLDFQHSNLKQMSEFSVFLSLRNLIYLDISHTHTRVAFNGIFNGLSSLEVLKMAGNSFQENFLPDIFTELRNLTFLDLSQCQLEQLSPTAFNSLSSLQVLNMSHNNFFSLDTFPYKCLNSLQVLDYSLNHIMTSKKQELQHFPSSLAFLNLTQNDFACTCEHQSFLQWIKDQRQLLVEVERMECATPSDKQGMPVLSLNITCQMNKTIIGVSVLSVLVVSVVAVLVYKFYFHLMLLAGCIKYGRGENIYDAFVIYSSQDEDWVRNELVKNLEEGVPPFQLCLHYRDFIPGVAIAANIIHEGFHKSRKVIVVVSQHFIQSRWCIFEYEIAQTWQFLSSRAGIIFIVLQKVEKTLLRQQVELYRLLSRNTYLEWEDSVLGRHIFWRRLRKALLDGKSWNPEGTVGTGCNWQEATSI
Sequence (Q99836 whole entry, looked up): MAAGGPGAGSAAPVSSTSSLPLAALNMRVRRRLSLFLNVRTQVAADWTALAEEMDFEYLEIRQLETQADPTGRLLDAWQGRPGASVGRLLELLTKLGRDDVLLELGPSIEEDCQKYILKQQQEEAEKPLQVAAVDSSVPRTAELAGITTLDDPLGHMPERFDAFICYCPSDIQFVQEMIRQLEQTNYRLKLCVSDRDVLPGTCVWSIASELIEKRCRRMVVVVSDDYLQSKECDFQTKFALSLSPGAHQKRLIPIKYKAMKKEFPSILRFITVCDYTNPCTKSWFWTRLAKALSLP
Assay: disruptors of TLR4 binding to MyD88 – cell-based, HeLa CL3-4, BLA complementation, FRET ratio, primary screen (AID 861);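 further: 0% = vehicle and 100% = reference inhibitor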
Details: HeLa CL3-4 TLR4/MyD88 BLA complementation, at 8.4 µM
Hit rate of the full screen: of about 200,000 compounds, about 360 (0.18%) were called active. No stated cut-off is given here; in the data, active means inhibition above about 25%; inactive means the rest. The list comes from a sample in which actives are over-represented; it also holds close analogues and randomly drawn compounds.
Would you mind answering with one of these outcomes? t for active, f for inactive

Below, 2 molecules whose answers are already recorded.
Cc1nc2ccccc2n1CC(=O)N/N=C/c1cccs1 :: f
Cc1cccc(COc2ccccc2/C=N/Nc2ccc([N+](=O)[O-])cc2)c1 :: t

Here's the next entry for you.
Inquiry: Could you kindly confirm the outcome this assay logged for COc1cc(/C=N/O)ccc1OCc1ccc([N+](=O)[O-])cc1 ?
Reply text: f

* * *

Molecular target: Toll-like receptor 4 (Homo sapiens) + Myeloid differentiation primary response protein MyD88 (Homo sapiens) (UniProt O00206+Q99836)
Test: disruptors of TLR4 binding to MyD88 – cell-based, HeLa CL3-4, BLA complementation, FRET ratio, primary screen (AID 861);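 further: 0% = vehicle and 100% = reference inhibitor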
Details: HeLa CL3-4 TLR4/MyD88 BLA complementation, at 8.4 µM, active compounds read high
About 360 (0.18%) of roughly 200,000 compounds were called active. The entries come from a sample that favours actives as a whole.
result_type: inhibition (%)
# number only, unit % dropped from output

O=C(CO/N=C/c1ccccc1OC(F)F)NC1CCCC1 :: 16.4
CCN(CC)c1ccc2c(Nc3ccccc3)c(C=O)c(=O)oc2c1 :: 6.79
CC1=NN(c2ccccc2)C(=O)C1C(=O)c1ccc([N+](=O)[O-])cc1 (centres undefined) :: 1.28
CC1CCN(c2ccc([N+](=O)[O-])cc2C(N)=O)CC1 :: 12.4
CC1=NN(c2cccc(Cl)c2)C(=O)C12CC(C)=C(C)CS2 (centres undefined) :: 2.14

Inquiry: Dear colleague, I am looking for the recorded inhibition of the following compound: Cc1cccc(C)c1NC(=O)C1CCCN1C(=O)OC(C)(C)C (centres undefined)
Reply text: -1.58

Inquiry: Dear colleague, I am looking for the recorded inhibition of the following compound: CC/S(CC1CC1(Cl)Cl)=N\S(=O)(=O)c1ccc(C)cc1 (centres undefined)
Reply text: -3.44

Inquiry: Dear colleague, I am looking for the recorded inhibition of the following compound: CCCn1nnc(NC(=O)COc2ccc(CC)cc2)n1
Reply text: 9.27

Inquiry: Dear colleague, I am looking for the recorded inhibition of the following compound: CCN(CC)c1ccc2oc(=O)c(C)nc2c1
Reply text: 26.6

Inquiry: Dear colleague, I am looking for the recorded inhibition of the following compound: Cc1c(Cl)cccc1NC(=S)N(Cc1ccccc1)Cc1cccnc1
Reply text: 1.23

Inquiry: Dear colleague, I am looking for the recorded inhibition of the following compound: O=C(Nc1ccccc1Cc1ccccc1)c1ccc2c(c1)SC1=NS(=O)(=O)CCN12
Reply text: 14.2

Inquiry: Dear colleague, I am looking for the recorded inhibition of the following compound: O=C(/C=C/c1ccc(F)cc1)NCCNC(=O)/C=C/c1ccc(F)cc1
Reply text: -2.71

Inquiry: Dear colleague, I am looking for the recorded inhibition of the following compound: Cn1cccc1C(C#N)c1ccccc1C#N (centres undefined)
Reply text: 2.41

Inquiry: Dear colleague, I am looking for the recorded inhibition of the following compound: CCOC(=O)C1=C(CC)Nc2ccccc2N=C1N
Reply text: -10.4

* * *

Target: Toll-like receptor 4 (Homo sapiens) + Myeloid differentiation primary response protein MyD88 (Homo sapiens) (UniProt O00206+Q99836)
Experiment: disruptors of TLR4 binding to MyD88 – cell-based, HeLa CL3-4, BLA complementation, FRET ratio, primary screen (AID 861);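 further: 0% = vehicle and 100% = reference inhibitor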
Conditions: HeLa CL3-4 TLR4/MyD88 BLA complementation, at 8.4 µM
The campaign covered roughly 200,000 compounds. About 360 (0.18%) were called active. Cut-off read from the data, not from the text of the source: active = inhibition above about 25%; inactive = the rest. This is one part of a sample in which actives are shown more often than they occur.
Would you mind answering with one of these outcomes? active, inactive

Below, 5 compounds whose answers are already recorded.
CC1=NN(C(=O)CCc2ccccc2O)C(O)(C(F)(F)F)C1 (stereo not drawn) :: inactive
CCCNC(=S)N1CCCC(c2nc3ccccc3[nH]2)C1 (stereo not drawn) :: inactive
COc1ccc(C2CC(c3cccs3)=NN2c2ccccc2)cc1 (stereo not drawn) :: inactive
COc1ccccc1N1N=C(c2cccs2)CC1c1ccccc1 (stereo not drawn) :: active
CS(=O)(=O)N(Cc1ccccc1Cl)c1ccc(C(=O)NCc2cccnc2)cc1 :: inactive

Here's the next entry for you.
Inquiry: Could you kindly confirm the outcome this assay logged for COc1cc(OC)c(C(=O)Nc2ccccc2-c2ccccc2)cc1OC ?
Reply text: inactive

* * *

inhibition reference
Target: Toll-like receptor 4 (Homo sapiens) + Myeloid differentiation primary response protein MyD88 (Homo sapiens) (UniProt O00206+Q99836)
Test: disruptors of TLR4 binding to MyD88 – cell-based, HeLa CL3-4, BLA complementation, FRET ratio, primary screen (AID 861);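 further: 0% = vehicle and 100% = reference inhibitor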
Conditions: HeLa CL3-4 TLR4/MyD88 BLA complementation, at 8.4 µM, active compounds read high
Hit rate of the full screen: of about 200,000 compounds, about 360 (0.18%) were called active. The full list was thinned out, with actives kept by preference.
# number only, unit % dropped from output

// worked examples, inhibition included
CCCCCCn1c(CN2CCCCC2)nc2c1c(=O)n(C)c(=O)n2C :: 3.83
Cc1ccc(OCCCC(=O)NC(C)c2ccccc2)c(C)c1 (configuration not stated) :: -0.61
COc1cc(CN2CCNC(=O)C2CC(=O)NCCc2ncccc2C)cc(OC)c1 (configuration not stated) :: -11.2
CCOC(=O)CCCN1CC(O)=C(c2nc3ccccc3s2)C1=N :: -14.8
O=C1Nc2ccccc2C12Nc1ccccc1S2 (configuration not stated) :: -1.86

Inquiry: Dear colleague, I am looking for the recorded inhibition of the following compound: O=C(COC(=O)Cc1ccc(F)cc1)Nc1cc(S(=O)(=O)N2CCOCC2)ccc1N1CCCC1
Reply text: -6.48

Inquiry: Dear colleague, I am looking for the recorded inhibition of the following compound: O=C(Cc1ccccc1)NCc1ccc(F)cc1
Reply text: -9.59

Inquiry: Dear colleague, I am looking for the recorded inhibition of the following compound: Cc1nc(Cl)c2oc3ccccc3c2n1
Reply text: 35.2

Inquiry: Dear colleague, I am looking for the recorded inhibition of the following compound: O=C(Nc1ccccc1Cl)c1ccc2nsnc2c1
Reply text: 7.26

Inquiry: Dear colleague, I am looking for the recorded inhibition of the following compound: Cc1nc(N2CCN(c3ncccn3)CC2)c2oc3ccccc3c2n1
Reply text: 7.8

Inquiry: Dear colleague, I am looking for the recorded inhibition of the following compound: CC(C)c1csc(CN2CCC(CO)(Cc3ccccc3)CC2)n1
Reply text: -3.76

Inquiry: Dear colleague, I am looking for the recorded inhibition of the following compound: CCc1ccc2c(c1)C1(NN=C(c3ccccc3)S1)C(=O)N2 (configuration not stated)
Reply text: 25.3

Inquiry: Dear colleague, I am looking for the recorded inhibition of the following compound: O=C1c2cccc3c([N+](=O)[O-])ccc(c23)C(=O)N1CC1CCCO1 (configuration not stated)
Reply text: 84.1

Inquiry: Dear colleague, I am looking for the recorded inhibition of the following compound: CC(Oc1ccc(Br)cc1Br)C(=O)NC1CCCC1 (configuration not stated)
Reply text: -3.01

Inquiry: Dear colleague, I am looking for the recorded inhibition of the following compound: O=C(COC(=O)c1cc(-c2cccs2)nn1-c1ccccc1)Nc1cc([N+](=O)[O-])ccc1Cl
Reply text: 7.72

Inquiry: Dear colleague, I am looking for the recorded inhibition of the following compound: COc1ccc(/C=C2/C(=O)OCc3cc(OC)c(OC)cc32)c(OC)c1
Reply text: -8.99

Inquiry: Dear colleague, I am looking for the recorded inhibition of the following compound: O=C(NCCc1ccc(F)cc1)c1n[nH]c2ccccc12
Reply text: -4.67
